Target of assay: Cyclin E1 (Homo sapiens, UniProt P24864+Q96SW2)
Sequence (P24864 whole entry): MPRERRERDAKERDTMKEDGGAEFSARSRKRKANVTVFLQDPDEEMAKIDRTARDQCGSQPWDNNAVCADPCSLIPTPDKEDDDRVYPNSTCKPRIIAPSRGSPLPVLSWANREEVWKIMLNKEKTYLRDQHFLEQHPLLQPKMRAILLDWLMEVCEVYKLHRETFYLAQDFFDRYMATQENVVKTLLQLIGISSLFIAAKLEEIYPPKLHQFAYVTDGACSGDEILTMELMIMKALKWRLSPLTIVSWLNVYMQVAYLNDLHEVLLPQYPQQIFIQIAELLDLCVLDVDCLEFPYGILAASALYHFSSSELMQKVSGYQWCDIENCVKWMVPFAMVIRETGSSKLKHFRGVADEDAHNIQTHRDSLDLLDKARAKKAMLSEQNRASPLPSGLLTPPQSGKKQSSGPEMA
Sequence (Q96SW2 whole entry): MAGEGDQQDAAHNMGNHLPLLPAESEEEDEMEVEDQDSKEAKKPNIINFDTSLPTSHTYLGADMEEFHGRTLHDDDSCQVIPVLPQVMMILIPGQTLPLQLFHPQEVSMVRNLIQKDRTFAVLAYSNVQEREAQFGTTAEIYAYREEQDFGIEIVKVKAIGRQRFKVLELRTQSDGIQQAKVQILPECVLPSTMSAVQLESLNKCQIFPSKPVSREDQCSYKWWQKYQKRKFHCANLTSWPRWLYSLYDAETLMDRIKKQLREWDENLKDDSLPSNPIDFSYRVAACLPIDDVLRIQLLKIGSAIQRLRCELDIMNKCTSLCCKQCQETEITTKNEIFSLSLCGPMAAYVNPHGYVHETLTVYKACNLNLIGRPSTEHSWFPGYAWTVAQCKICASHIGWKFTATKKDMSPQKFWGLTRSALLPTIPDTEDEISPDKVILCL
Sequence (Q16531 whole entry partner): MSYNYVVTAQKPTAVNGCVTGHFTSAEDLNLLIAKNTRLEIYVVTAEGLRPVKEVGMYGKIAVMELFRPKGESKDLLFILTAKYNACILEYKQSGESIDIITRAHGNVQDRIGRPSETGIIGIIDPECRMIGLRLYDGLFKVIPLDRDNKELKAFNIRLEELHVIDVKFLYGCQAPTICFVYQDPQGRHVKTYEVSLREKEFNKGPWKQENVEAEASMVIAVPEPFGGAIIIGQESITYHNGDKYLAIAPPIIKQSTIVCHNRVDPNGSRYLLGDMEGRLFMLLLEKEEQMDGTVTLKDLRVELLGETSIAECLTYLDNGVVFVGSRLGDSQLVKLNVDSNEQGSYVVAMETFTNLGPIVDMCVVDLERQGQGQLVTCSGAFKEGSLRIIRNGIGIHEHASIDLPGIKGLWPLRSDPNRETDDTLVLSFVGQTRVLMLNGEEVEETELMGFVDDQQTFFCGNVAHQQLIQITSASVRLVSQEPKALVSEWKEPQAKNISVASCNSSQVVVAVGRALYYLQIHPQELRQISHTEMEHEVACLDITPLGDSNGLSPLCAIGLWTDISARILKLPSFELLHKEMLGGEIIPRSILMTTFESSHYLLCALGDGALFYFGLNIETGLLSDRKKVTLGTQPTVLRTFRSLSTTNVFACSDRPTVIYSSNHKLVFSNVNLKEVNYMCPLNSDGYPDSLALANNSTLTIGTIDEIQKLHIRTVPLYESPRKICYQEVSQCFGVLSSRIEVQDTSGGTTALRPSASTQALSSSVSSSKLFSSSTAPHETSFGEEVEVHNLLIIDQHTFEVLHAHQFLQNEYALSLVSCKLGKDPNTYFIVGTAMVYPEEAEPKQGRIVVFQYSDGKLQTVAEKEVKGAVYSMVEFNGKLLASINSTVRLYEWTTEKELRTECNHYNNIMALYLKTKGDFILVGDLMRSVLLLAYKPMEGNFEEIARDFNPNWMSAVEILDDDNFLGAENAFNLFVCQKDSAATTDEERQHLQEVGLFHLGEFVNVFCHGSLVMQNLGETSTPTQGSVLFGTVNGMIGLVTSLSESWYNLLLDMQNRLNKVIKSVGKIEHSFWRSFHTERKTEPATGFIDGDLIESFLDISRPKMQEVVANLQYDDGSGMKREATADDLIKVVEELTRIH
Experiment: Cyclin E1 Cellular Degradation Assay (MSD)
Assay type: cell-based
Parameters: endogenous in cells; host or cells: OVCAR3
Test conditions: Cyclin E1 cellular degradation, maximum degradation
Result type: Dmax (%)
Answers are plain numbers, in %.

Solved cases (5 shown):
Which Dmax is reported for this compound? O=C1CCC(N2Cc3ccc(COC(=O)Nc4ccc(Oc5ccc(F)c(F)c5)cc4)c(O[C@H]4CC[C@@H](O)CC4)c3C2=O)C(=O)N1 (stereo partly drawn)
111

Follow-up entry: COc1c(COC(=O)Nc2ccc(N(C)c3cccc(F)c3)cc2)ccc2c1C(=O)N(C1CCC(=O)NC1=O)C2 (stereo not drawn)
104

Follow-up entry: CC(C)Oc1c(COC(=O)Nc2ccc(Oc3cccc(Cl)c3)cc2)ccc2c1C(=O)N(C1CCC(=O)NC1=O)C2 (stereo not drawn)
104

Follow-up entry: COc1c(COC(=O)Nc2ccc(Oc3cc(F)c(F)cc3F)cc2)ccc2c1C(=O)N(C1CCC(=O)NC1=O)C2 (stereo not drawn)
111

Follow-up entry: COc1c(COC(=O)Nc2ccc(Oc3cccc(F)c3Cl)cc2)ccc2c1C(=O)N(C1CCC(=O)NC1=O)C2 (stereo not drawn)
106

***
Which Dmax is reported for this compound? COc1cc(Oc2ccc(F)c(Cl)c2)ccc1NC(=O)OCc1ccc2c(c1OC)C(=O)N(C1CCC(=O)NC1=O)C2 (stereo not drawn)
112
